# ASSAY NOTES: Evaluation of solubility and solution stability
# Format: physicochemical
# Design: key: No precipitation ∘; Slight precipitation Δ; Notable x
# EXPERIMENTAL CONTEXT: 20 portions dye, 70 portions water, 10 portions ethylene glycol; 50° C. 7 d, then 0° C. 7 d; precipitation on filtering
ASSAY ENDPOINT: Solubility and stability of dyes in aqueous solvent system

Examples with answers:
[[record]]
compound = "O=C(c1cccc(S(=O)(=O)O)c1)c1c2c3c(c(Nc4cc(S(=O)(=O)CCSCCCS(=O)(=O)O)ccc4S(=O)(=O)O)cc(S(=O)(=O)O)c3[nH]c1=O)C(=O)c1ccccc1-2 [Dye B1]"
result = "∘"

[[record]]
compound = "CCN(CC)CCS(=O)(=O)c1ccc(S(=O)(=O)O)c(Nc2ccc3[nH]c(=O)c(C(=O)c4cccc(S(=O)(=O)O)c4)c4c3c2C(=O)c2ccccc2-4)c1 [Dye1, reference compound]"
result = "Δ"

[[record]]
compound = "O=C(c1cccc(S(=O)(=O)O)c1)c1c2c3c(c(Nc4cc(S(=O)(=O)CCSCCCS(=O)(=O)O)c(S(=O)(=O)O)cc4S(=O)(=O)O)cc(S(=O)(=O)O)c3[nH]c1=O)C(=O)c1ccccc1-2 [Dye B3]"
result = "∘"

[[record]]
compound = "O=C(c1cccc(S(=O)(=O)O)c1)c1c2c3c(c(Nc4ccc(S(=O)(=O)O)cc4S(=O)(=O)O)cc(S(=O)(=O)O)c3[nH]c1=O)C(=O)c1ccccc1-2 [Dye C1]"
result = "∘"

[[record]]
compound = "Cc1ccc(S(=O)(=O)Nc2cc(Nc3cc(S(=O)(=O)O)c4[nH]c(=O)c(C(=O)c5cccc(S(=O)(=O)O)c5)c5c4c3C(=O)c3ccccc3-5)c(S(=O)(=O)O)cc2S(=O)(=O)O)cc1 [Dye D4]"
result = "Δ"

[[record]]
compound = "O=S(=O)([O-])c1cc(Nc2nc(Nc3ccc(/C=C/c4ccc(Nc5nc(Nc6cc(S(=O)(=O)[O-])cc7cc(S(=O)(=O)[O-])c(N=Nc8ccccc8)c(O)c67)nc(N6CCOCC6)n5)cc4S(=O)(=O)[O-])c(S(=O)(=O)[O-])c3)nc(N3CCOCC3)n2)c2c(O)c(N=Nc3ccccc3)c(S(=O)(=O)[O-])cc2c1.[Na+].[Na+].[Na+].[Na+].[Na+].[Na+] [C.I. direct red 227, reference compound]"
result = "Δ"

[[record]]
compound = "CC(=O)Nc1cc(Nc2ccc3[nH]c(=O)c(C(=O)c4cccc(S(=O)(=O)O)c4)c4c3c2C(=O)c2ccccc2-4)c(S(=O)(=O)O)cc1S(=O)(=O)O [Dye2, reference compound]"
result = "Δ"

[[record]]
compound = "CCN(CC)CCS(=O)(=O)c1ccc(S(=O)(=O)O)c(Nc2cc(S(=O)(=O)O)c3[nH]c(=O)c(C(=O)c4cccc(S(=O)(=O)O)c4)c4c3c2C(=O)c2ccccc2-4)c1 [Dye B2]"
result = "∘"

[[record]]
compound = "O=C(O)c1cc(Oc2nc(Nc3cc(Nc4cc(S(=O)(=O)O)c5[nH]c(=O)c(C(=O)c6cccc(S(=O)(=O)O)c6)c6c5c4C(=O)c4ccccc4-6)c(S(=O)(=O)O)cc3S(=O)(=O)O)nc(N(CCO)CCO)n2)cc(C(=O)O)c1 [Dye D2]"
result = "∘"

[[record]]
compound = "CC(=O)Nc1cc(Nc2cc(S(=O)(=O)O)c3[nH]c(=O)c(C(=O)c4cccc(S(=O)(=O)O)c4)c4c3c2C(=O)c2ccccc2-4)c(S(=O)(=O)O)cc1S(=O)(=O)O [Dye C5]"
result = "∘"


// for each compound in input: emit Solubility and stability of dyes in aqueous solvent system
1. O=C(O)c1cc(Oc2nc(Nc3cc(Nc4cc(S(=O)(=O)O)c5[nH]c(=O)c(C(=O)c6cccc(S(=O)(=O)O)c6)c6c5c4C(=O)c4ccccc4-6)c(S(=O)(=O)O)cc3S(=O)(=O)O)nc(Oc3cc(C(=O)O)cc(C(=O)O)c3)n2)cc(C(=O)O)c1 [Dye D1]
2. CN(c1nc(Oc2cc(C(=O)O)cc(C(=O)O)c2)nc(N(CCO)CCO)n1)c1cc(S(=O)(=O)O)c(Nc2cc(S(=O)(=O)O)c3[nH]c(=O)c(C(=O)c4cccc(S(=O)(=O)O)c4)c4c3c2C(=O)c2ccccc2-4)cc1S(=O)(=O)O [Dye D3]
3. CCN(CC)CCS(=O)(=O)c1cc(Nc2cc(S(=O)(=O)O)c3[nH]c(=O)c(C(=O)c4cccc(S(=O)(=O)O)c4)c4c3c2C(=O)c2ccccc2-4)c(S(=O)(=O)O)cc1S(=O)(=O)O [Dye B4]

A:
1. ∘
2. ∘
3. ∘
